- target or test system: UniProtKB Q04760
- run description: Inhibition recombinant human N-terminal 6His-tagged GLO1 (2 to 184 residues) expressed in Escherichia coli using MG as substrate preincubated for 15 to 20 mins followed by substrate addition and measured every 1 min for 8 mins
pIC50: −log10 of the molar value.
readout kind: pIC50

item smiles	target or test system	pIC50
Cc1ccc2cccc(NS(=O)(=O)c3ccccc3)c2n1	UniProtKB Q04760	4.84
O=S(=O)(Nc1cc(CCc2ccccc2)cc2cccnc12)c1ccccn1	UniProtKB Q04760	5.92
COc1ccc(-c2ccc(NS(=O)(=O)c3ccccn3)c3ncccc23)cc1Cl	UniProtKB Q04760	6.23
N#Cc1cccc(S(=O)(=O)Nc2cccc3cccnc23)c1	UniProtKB Q04760	5.14
CS(=O)(=O)Nc1ccc(-c2ccc(Cl)cc2)c2cccnc12	UniProtKB Q04760	5.21

P = O=S(=O)(Nc1cc(CCc2ccc(F)cc2)cc2cccnc12)c1ccccn1
Q = O=S(=O)(Nc1ccc(-c2ccc(Cl)cc2)c2cccnc12)c1ccccn1
R = CC(C)(C)c1ccc(S(=O)(=O)Nc2cccc3cccnc23)cc1
S = O=S(=O)(Cc1ccccc1)Nc1cccc2cccnc12
Q) // ascending sort on recorded pIC50 Quick reminder: the answer is the labels in the order asked.
A) S, R, P, Q
(S: 5.12, R: 5.38, P: 5.88, Q: 6.32)

---

- target or test system: Lactoylglutathione lyase (Homo sapiens, UniProt Q04760)
- Sequence (Q04760 whole entry, the tested form may be a part): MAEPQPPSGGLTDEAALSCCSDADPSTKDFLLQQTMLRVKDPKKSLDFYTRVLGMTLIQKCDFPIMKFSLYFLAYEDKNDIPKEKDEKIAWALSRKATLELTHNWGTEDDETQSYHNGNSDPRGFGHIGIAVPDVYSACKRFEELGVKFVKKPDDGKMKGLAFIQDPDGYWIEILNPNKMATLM
- run description: Inhibition recombinant human N-terminal 6His-tagged GLO1 (2 to 184 residues) expressed in Escherichia coli using MG as substrate preincubated for 15 to 20 mins followed by substrate addition and measured every 1 min for 8 mins
readout kind: IC50 (µM)

These solved cases illustrate the format of a correct answer.
item smiles	target or test system	IC50 / µM
O=C1Cc2cc(S(=O)(=O)Nc3cccc4cccnc34)ccc2N1	Lactoylglutathione lyase (Homo sapiens, UniProt Q04760)	6.6
O=S(=O)(Nc1ccc(-c2cccc(Cl)c2)c2cccnc12)c1ccccn1	Lactoylglutathione lyase (Homo sapiens, UniProt Q04760)	0.37

1 = O=S(=O)(Nc1cccc2cccnc12)c1ccc2ncsc2c1
2 = COc1cc(OC)cc(-c2ccc(NS(=O)(=O)c3ccccn3)c3ncccc23)c1
Q) Sort 1 and 2 by IC50 descending and give the first. Indicate your choice by writing its label.
A) 1
(1: 3.9 µM, 2: 1.19 µM)

---

- target or test system: Lactoylglutathione lyase (Homo sapiens)
- run description: Inhibition recombinant human N-terminal 6His-tagged GLO1 (2 to 184 residues) expressed in Escherichia coli using MG as substrate preincubated for 15 to 20 mins followed by substrate addition and measured every 1 min for 8 mins
pIC50: −log10 of the molar value.
readout kind: pIC50

item smiles	target or test system	readout kind	observed
CS(=O)(=O)Nc1ccc(-c2ccccc2)c2cccnc12	Lactoylglutathione lyase (Homo sapiens)	pIC50	4.94
O=S(=O)(Nc1ccc(-c2ccc(F)cc2)c2cccnc12)c1ccccn1	Lactoylglutathione lyase (Homo sapiens)	pIC50	6.14

1 = O=S(=O)(Nc1cccc2cccnc12)c1ccccc1
2 = O=S(=O)(Nc1ccc(-c2ccccc2)c2cccnc12)c1ccccn1
Q) Sort 1 and 2 by pIC50 descending and give the first. Indicate your choice by writing its label.
A) 2
(2: 6.30, 1: 5.07)

1 = O=S(=O)(Nc1cccc2cccnc12)c1ccccn1
2 = COc1cccc(S(=O)(=O)Nc2cccc3cccnc23)c1
Q) Hey, between 1 and 2 which has a smaller measured pIC50? Indicate your choice by writing its label.
A) 2
(2: 5.16, 1: 5.89)
